Hello, the source for this data is the supplement of paper PMC6089552, in case you need it.

# Test system: A673/TR/shEF
# experiment_notes: cell viability (LOESS-normalised, relative to median of negative controls) (log2 ratio); higher = more viable cells (less compound effect), active = hit call of the paper (over 3 MAD below the median)
# experimental_setup: 0.308 µM; library screen: screen3; EWS-FLI1 expression: low (doxycycline-induced shRNA knockdown); treatment time: 72 h
Among all 3,200 compounds or so, about 300 (9.4%) showed activity. The list comes from a sample in which actives are over-represented; it also holds close analogues and randomly drawn compounds.
Entries and their cell viability (log2)

Observe how each entry below is paired with its result.
molecule_smiles=Nc1ncnc2nc[nH]c12 system_tested=A673/TR/shEF reported_property="cell viability (log2)" reported_measurement="0.0376 (inactive)"
molecule_smiles=S=c1nc[nH]c2nc[nH]c12 system_tested=A673/TR/shEF reported_property="cell viability (log2)" reported_measurement="0.158 (inactive)"
molecule_smiles=C[C@H](Cn1cnc2c(N)ncnc21)OCP(=O)(O)O system_tested=A673/TR/shEF reported_property="cell viability (log2)" reported_measurement="0.0155 (inactive)"

Documented cell viability (log2) of `Nc1nc(=S)c2[nH]cnc2[nH]1` : 0.137 (inactive)

response.value for `C[C@H]1COC2=C1C(=O)C(=O)c1c2ccc2c1CCCC2(C)C` (field: cell viability (log2)) = 0.0683 (inactive)

Record `Cn1c(=O)c2[nH]cnc2n(C)c1=O` . Reported cell viability (log2): 0.14 (inactive)

Item: `C=CC(=O)N1CCC[C@@H](n2nc(-c3ccc(Oc4ccccc4)cc3)c3c(N)ncnc32)C1` | cell viability (log2): 0.0297 (inactive)

# molecule `CCc1nc(N)nc(N)c1-c1ccc(Cl)cc1` ; its cell viability (log2) = 0.135 (inactive)

Please fill in: cell viability (log2) reported for `CC(C)(C)C(=O)OCOP(=O)(COCCn1cnc2c(N)ncnc21)OCOC(=O)C(C)(C)C` = 0.0345 (inactive)

For reference, reported cell viability (log2) for `O=C(O)C[C@H](O)C[C@H](O)/C=C/c1c(C2CC2)nc2ccccc2c1-c1ccc(F)cc1` stands at -0.0155 (inactive)

Looking up `FC(F)(F)c1ccc(/C=C/c2nc(COc3ccc(CCCCn4ccnn4)cc3)co2)cc1` , I see its cell viability (log2) listed as -0.12 (active)

----------
cell viability (log2) values, listed per item
# System: A673/TR/shEF
# experiment_notes: cell viability (LOESS-normalised, relative to median of negative controls) (log2 ratio); higher = more viable cells (less compound effect), active = hit call of the paper (over 3 MAD below the median)
# experimental_setup: 0.25 µM; library screen: screen1; EWS-FLI1 expression: high (no doxycycline); treatment time: 72 h
Hit rate of the full screen: of about 3,200 compounds, about 300 (9.4%) showed activity. What follows is part of a selection rich in actives, with near analogues and random picks from the rest.
Number only, please.

Check out these entries, answers already filled in.
compound="CC1=C2C(O)C(=O)OC3CC4C(C)(C)C(=O)CCC4(C)C(CC1)C23C (configuration not stated)" reported_measurement=0.149
compound=CCOc1cccc(C(=O)c2ccc(O)c(O)c2O)c1 reported_measurement=0.0703
compound=Cc1ccc(CN2CCN(Cc3c[nH]c4ccccc34)CC2)cc1 reported_measurement=0.0521
compound=Oc1cc(O)cc(/C=C/c2ccccc2)c1 reported_measurement=0.0674
compound="C/C=C/CC(C)C(O)C1C(=O)NC(CC)C(=O)N(C)CC(=O)N(C)C(CC(C)C)C(=O)NC(C(C)C)C(=O)N(C)C(CC(C)C)C(=O)NC(C)C(=O)NC(C)C(=O)N(C)C(CC(C)C)C(=O)N(C)C(CC(C)C)C(=O)N(C)C(C(C)C)C(=O)N1C (configuration not stated)" reported_measurement=0.0736

The compound identified as CC=C(C)C(=O)OC1[C@@H]2C=C3C4CC(=O)O[C@@H](c5ccoc5)[C@]4(C)CCC3[C@@](C)(C2=O)[C@@H](C(O)C(=O)OC)C1(C)C (some centres not stated) registered its cell viability (log2) at 0.075

The compound listed as NC[C@@H]1O[C@H](O[C@@H]2[C@@H](CO)OC(O[C@H]3C(O[C@H]4O[C@H](CO)[C@@H](O)[C@H](O)[C@H]4N)[C@@H](N)C[C@@H](N)[C@@H]3O)[C@@H]2O)[C@H](N)[C@@H](O)[C@@H]1O (some centres not stated) shows cell viability (log2) equal to 0.0774
